Listing: zone of inhibition at 1000 µg/mL of selected molecules
Test system: Bacillus subtilis
assay remarks: Antibacterial activity against Bacillus subtilis ATCC 6633 at 1 mg/ml after 48 hrs by agar-well diffusion assay
Format: functional
condition description: ATCC 6633, 48 h, read-out: IZ
Where a name gives a salt, the structure may show the parent alone.

Below, 6 molecules whose answers are already recorded.
molecule	endpoint result
C[C@@H]1CC[C@@]2(C)C(C(=O)O)=CCC[C@@H]2[C@@]1(C)CCc1ccoc1	7 mm
C=C(C)[C@@H]1CC[C@@]23C[C@@H]4[C@@H](C[C@H]2[C@]1(C)CCC(=O)OC)[C@@]4(C)C3	1 mm
CN[C@@H]1[C@H](O[C@H]2[C@H](O[C@H]3[C@H](O)[C@@H](O)[C@H](N=C(N)N)[C@@H](O)[C@@H]3N=C(N)N)O[C@@H](C)[C@]2(O)C=O)O[C@@H](CO)[C@H](O)[C@H]1O [STREPTOMYCIN SULFATE]	7 mm
C[C@@H]1CC[C@@]2(C)C(CO)=CCC[C@@H]2[C@@]1(C)CCc1ccoc1	3 mm
COC(=O)CC[C@]1(C)C(C(C)=O)CC[C@@]23C[C@@H]4[C@@H](CC21)[C@@]4(C)C3 (stereo partly drawn)	3 mm
COC(=O)C1=CCC[C@@H]2[C@@](C)(CCc3ccoc3)[C@H](C)CC[C@@]12C	1 mm

Kindly note the recorded zone of inhibition at 1000 µg/mL for `C=C(C)[C@@H]1CC[C@@]23C[C@@H]4[C@@H](C[C@H]2[C@]1(C)CCCO)[C@@]4(C)C3` , which is 3 mm

For this molecule ( `C=C(C)[C@@H]1CC[C@@]23C[C@@H]4[C@@H](C[C@H]2[C@]1(C)CCC(=O)O)[C@@]4(C)C3` ), measured zone of inhibition at 1000 µg/mL is 7 mm
